# SYSTEM: Sterol O-acyltransferase 1 (Homo sapiens)
# PROCEDURE_SUMMARY: Inhibition of human ACAT1 at 0.4 mM
TEST_READOUT: inhibition (%)
Answer with a number only, understood to be in %.

[[record]]
smiles_code = "COc1c([C@@H](O)c2ccccc2)ccc2c1OCO2"
measurement_unit = "%"
measured_number = 31

[[record]]
smiles_code = "COc1cccc(O)c1C(=O)OCc1ccccc1"
measurement_unit = "%"
measured_number = 46

[[record]]
smiles_code = "COc1c(O)ccc2oc3c(O)cc(O)cc3c(=O)c12"
measurement_unit = "%"
measured_number = 7

[[record]]
smiles_code = "COc1c(C(=O)c2ccccc2)ccc2c1OCO2"
measurement_unit = "%"
measured_number = 54

[[record]]
smiles_code = "O=c1c2cc(O)ccc2oc2cccc(O)c12"
measurement_unit = "%"
measured_number = 31

[[record]]
smiles_code = "COc1cc(OC)cc(-c2ccccc2)c1"
measurement_unit = "%"
measured_number = 43


Next molecule, inhibition to be filled in.
Hello, please tell me recorded inhibition for this one: COc1cc(O)cc(-c2ccccc2)c1 30
